Hey, just so you know, these numbers are from PubChem BioAssay (Tox21).

# test_method_notes: qHTS assay to identify small molecule agonists of the estrogen receptor alpha (ER-alpha) signaling pathway in the presence of an antagonist - cell viability counter screen (AID 1259386);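 further: cells exposed to compounds for 22 h at 37 °C before the viability read; nearly all actives have a fitted effect of over 30% in size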
# stated_conditions: VM7Luc4E2 viability, CellTiter-Fluor fluorescence, 22 h; series mostly up to 92.4 µM
Inconclusive results are not listed. Calls of active or inactive are those of the source. The call rests on the fitted dose curve; in most records, active means well fitted cell-killing curve with a large enough effect in the repeat runs; inconclusive means weak or mixed curves, or effect the other way; inactive means no such curve, though single readings can be large or run the other way.

{"structure_as_smiles": "CC(C)(C#N)N=NC(C)(C)C#N", "outcome": "inactive"}
{"structure_as_smiles": "Nc1ccc2ccccc2c1", "outcome": "inactive"}
{"structure_as_smiles": "COP(=S)(OC)Oc1ccc(Sc2ccc(OP(=S)(OC)OC)cc2)cc1", "outcome": "inactive"}
